Where do these numbers come from? They come from PubChem BioAssay (NCI).

Assay: NCI Yeast Anticancer Drug Screen. Data for the cln2 rad14 strain (AID 165);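 also: 0% = growth equal to vehicle treated cultures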
Settings: S. cerevisiae cln2 rad14 strain, at 50.0 µM, stronger effect = higher value
About 79,000 compounds went through this panel and 15% of them were active in at least one assay; those are over-represented in the sample as a whole.
Outcome label depends on growth inhibition relative to -10%: at/above gives Met, below gives Not met.

I'd appreciate it if you could say whether `O=C(COc1ccc(Cl)cc1)Nc1ccc(S(=O)(=O)O)c2ccccc12` has growth inhibition at least equal to -10%.
Met

Test whether the compound `C/C(=N\NC(N)=S)c1cc(C)c(C)cc1C` records growth inhibition of -10% or higher.
Met

Please check the record Cc1cc([N+](=O)[O-])ccc1NC(=O)C(=O)C(C(=O)c1ccccc1-c1ccccc1)C1OC(=O)c2ccccc21 (stereo unspecified) and state if its growth inhibition is at or above -10%.
Not met

API: above_or_equal(metric=growth inhibition, cutoff=-10%) for item C=CCOC(=O)C1CC=CCC1C(=O)OCC=C (stereo unspecified)
Not met

Does growth inhibition meet or surpass -10% for `C#Cc1c(C)c(/C=C/C(C)=C/C=C/C(C)=C/C(=O)OC)n(C)c1C` ?
Met

Confirm if growth inhibition reported for the compound CCOC(=O)Cc1csc(NC(NC(=O)OCC)(C(=O)OCC)C(F)(F)F)n1 (stereo unspecified) is -10% or above.
Met

Is growth inhibition at least -10%? Consider `N/N=C(\N)N(Cc1ccccc1)c1ccccc1`
Not met

Record C[N+](C)(C)C(C1=CCCC1=O)c1ccccc1 (stereo unspecified) ; criterion: growth inhibition no lower than -10%. Met?
Met

Form field: growth inhibition at least -10%? Entry: `CSc1ccc(NC(=O)SCc2ccccc2)cc1`
Met

Would you say CCCCC(=O)C(CC)(c1ccccc1)N(C)C (stereo unspecified) shows growth inhibition at minimum -10%?
Not met

Decide: is the reported value of growth inhibition for `Cc1ccc(Cl)cc1NC(=O)Nc1ccc(Cl)c(Cl)c1` equal to or greater than -10%?
Met

----------
Assay: NCI Yeast Anticancer Drug Screen. Data for the sgs1 mgt1 strain (AID 161);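 also: 0% = growth of cultures given vehicle only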
Settings: S. cerevisiae sgs1 mgt1 strain, at 50.0 µM, stronger effect = higher value
Compounds without any hit were thinned out: in the full panel of roughly 79,000, 15% have a hit. Calls of active or inactive are those of the source. No stated cut-off is given here; in the data, active means growth inhibition above about 70%; inactive means the rest.
Exercise: state measured growth inhibition for each of the molecules provided.

Notebook: NC(Cc1cccnn1)C(=O)O (stereo unspecified) , growth inhibition read as -29.2% (inactive)

Value of measured growth inhibition for the entry CC(=O)OC12c3ccccc3C(c3ccccc31)C1C(=O)N(c3ccccn3)C(=O)C12 (stereo unspecified) : 5.9% (inactive)

Data point: `O=C(CSc1nnc(Cc2ccccc2)o1)Nc1cccc([N+](=O)[O-])c1` ; growth inhibition = 12.1% (inactive)

Measured growth inhibition, `CCCC[P+](CCCC)(CCCC)c1ccccc1` : -0.05% (inactive)

For record `CCOC(=O)C1=C(Nc2ccc(Cl)cc2Cl)OC/C1=N\NS(=O)(=O)c1ccc(C)cc1` the listed growth inhibition is 1.2% (inactive)

Recorded result, `CCOC(=O)c1cnc2nc[nH]n2c1=O` , growth inhibition: -11.2% (inactive)

----------
Assay: NCI Yeast Anticancer Drug Screen. Data for the mlh1 rad18 strain (AID 175)
Conditions: S. cerevisiae mlh1 rad18 strain growth inhibition; at 50.0 µM; stronger effect = higher value
This is part of a sample that, as a whole, favours compounds with a hit. Of some 79,000 tested, about 15% had one in any assay.
Can you tell me growth inhibition for the items I'm about to list?
# number only, unit % dropped from output

// field: growth inhibition; key: CCOC(=O)C1SCSCC1=O (stereo not given) ; value = 6

The compound identified as `O=c1[nH]c2cc([N+](=O)[O-])ccc2c2ccc(Cl)cc12` registered its growth inhibition at 27.6

Entry `CC(=O)OC(C[N+]1(C)CCCCCC1)C[N+]1(C)CCCCCC1` — recorded growth inhibition = -11.2

The compound identified as `O=C(Nc1ccccc1)Oc1ccccc1C1CCCCC1` registered its growth inhibition at -20

get_value(item= N#Cc1c(N)nc2c3c1NC(=O)C(C(N)=O)C3c1ccccc1O2 (stereo not given) , readout=growth inhibition) returns -22.4

// growth inhibition value for `Cc1cccc(-c2nc(N)nc(N)n2)c1` : 22.4

Entry under test: `CC/C(=N\N=C(/CC)c1ccc[nH]1)c1ccc[nH]1` . Its growth inhibition was 9.25

The compound `O=C(NNC(=O)c1ccccc1Br)c1ccccc1` showed growth inhibition equal to -23.6

Form field growth inhibition, entry OC1CSCCCSCC(O)CSCCCSC1 (stereo not given) : 8

Note to self: growth inhibition recorded for CCC(=O)C1C(=O)CC(=O)C(C)C1c1ccccc1OC (stereo not given) was 10.4

The compound `CC(=O)OCCSSCCOC(C)=O` showed growth inhibition equal to -3.75

Sure, the documented growth inhibition for `NS(=O)(=O)c1ccc(Nc2c3ccccc3nc3cc(Cl)ccc23)cc1` is -13.3

Value of measured growth inhibition for the entry CN1N=C(c2ccccc2)C(C(c2ccccc2[N+](=O)[O-])C2C(=O)N(C)N=C2c2ccccc2)C1=O (stereo not given) : -2.1

According to the records, this compound `O=C1c2c(ccc3c2CCCC3)CC12Cc1ccc3c(c1C2=O)CCCC3` displays growth inhibition of 12.1

Lab note: `COC(=O)c1cccc2c(N)c(N)cc(C(=O)OC)c12` gave growth inhibition of 31.4

growth inhibition for S=C(Nc1ccccc1)N1CC2C3CCC(O3)C2C1 (stereo not given) is 22.6

Briefly, growth inhibition measured for O=C(O)c1ccc(C2COc3ccc(Cl)cc3C2)cc1 (stereo not given) : -24.2

growth inhibition for `COc1ccc(N2C(=O)CC(c3cc(OC)c(OC)c(OC)c3)CC2=O)cc1` is -2.75

The measured growth inhibition associated with `O=C1c2ccccc2S(=O)(=O)c2cc(-c3nn[nH]n3)ccc21` reads -48

Noted for CCCCC(C(N)=O)C(C)(C)C(=O)O (stereo not given) : its growth inhibition reads -1.75

Entry under test: `O=C(O)Cc1cc(O)c(CC(=O)O)cc1O` . Its growth inhibition was -4.1

Measured growth inhibition, `CCOC(=O)Nc1ccc(F)cc1F` : 14.4

growth inhibition measured on `Nc1cccc2nsnc12` = -15.7

Field growth inhibition (entry `C/C(CC(O)(C(F)(F)Cl)C(F)(F)Cl)=N\Nc1ccccc1` ) reads 17.5

# growth inhibition (compound: `CC(C)N(C(=O)c1cccc(C(=O)N(C(C)C)C(C)C)c1)C(C)C` ) is 33.4

----------
Assay: NCI Yeast Anticancer Drug Screen. Data for the rad50 strain (AID 155);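 also: 0% = growth of vehicle-only cultures of the same strain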
Settings: S. cerevisiae rad50 strain growth inhibition; at 50.0 µM; stronger effect = higher value
Experimental: Growth inhibition of yeast strains with defined genetic alterations is measured as a screen for potential anti-cancer activity. Selected strains with alterations in DNA damage repair or cell cycle control were exposed to compounds and growth inhibition was measured relative to vehicle treated controls. The strain used in this assay is rad50
Compounds without any hit were thinned out: in the full panel of roughly 79,000, 15% have a hit. Calls of active or inactive are those of the source. Rule as the data show it: active = growth inhibition above about 70%; inactive = the rest.
Field: growth inhibition. Provide a value for each of the molecules that follow.

Entry `O=C(/C=C/c1ccccc1)NC(=S)Nc1ccccc1F` , growth inhibition reported as 12.1% (inactive)

# growth inhibition (molecule: `COc1ccc(CCCc2cc3c(cc2OC)OCO3)cc1` ) is 5.6% (inactive)

So for `CN(C)c1ccc(/C=C(\C#N)C(=O)c2ccccc2)cc1Br` , the logged growth inhibition turned out to be 0.55% (inactive)

Record `CC(=O)Nc1ccc(Cc2ccc(Cl)cc2)cc1` , field growth inhibition: 5.6% (inactive)

Lab note: CN(C)C(=O)/C=C/C(=O)O (tested in a mixture with another compound) gave growth inhibition of -1.25% (inactive)

Record `CC(C)N1C(=O)c2cccc3c(Br)ccc(c23)C1=O` , field growth inhibition: 97.8% (active)

Summary for this molecule, `COc1cccc(CCO)c1OC` : growth inhibition is 1.3% (inactive)

// recorded growth inhibition for `O=C(NNC(=O)c1ccccc1Br)c1ccccc1Br` : -18.9% (inactive)

Notebook: CCC(C)(O)c1cnc(CC(C)C)c(=O)n1O (stereo not given) , growth inhibition read as 55.5% (inactive)

Notebook: `C(/C=C/C=C/Nc1ccc(N=Nc2ccccc2)cc1)=Nc1ccc(N=Nc2ccccc2)cc1` , growth inhibition read as -32.8% (inactive)

Field growth inhibition (entry `CCCC(=O)C(C)(C)C` ) reads 18.2% (inactive)

Memo: `Cc1ccc(S(=O)(=O)/C=C/c2ccccc2)cc1` , reported growth inhibition: 8.15% (inactive)

Consider `CC(=O)N/N=C(\N)c1nc2c(n3nc(C)nc13)CCCC2` . Its measured growth inhibition is -17.6% (inactive)

For reference, reported growth inhibition for `CC(C)OC(=O)CC#N` stands at -4.55% (inactive)

Value of growth inhibition reported for the molecule `O=C1OC(c2ccccc2)=N/C1=C/c1c(-c2ccccc2)c(-c2ccccc2)c2n1CCC2` is 21.9% (inactive)

Memo: `O=C(O)CC(=O)CC(=O)c1ccccc1` , reported growth inhibition: -14.8% (inactive)

Lab note: measured growth inhibition of Cn1c(=O)c2c(nc3n2C(CCl)CO3)n(C)c1=O (stereo not given) was 40.5% (inactive)

Form: molecule = `O=C1c2c(ccc3c2CCCC3)CC12Cc1ccc3c(c1C2=O)CCCC3` ; growth inhibition = 20.1% (inactive)

# growth inhibition of `CC(=N\N=C\c1ccccn1)/C(C)=N/N=C(C)/C(C)=N/N=C/c1ccccn1` = 29.1% (inactive)

Entry O=C(c1ccccc1)C(c1ccccc1)N(CCO)CCO (stereo not given) ; growth inhibition = -9.8% (inactive)

Reported growth inhibition of `Cc1[nH]c(=O)[nH]c1C(=O)c1ccc(-n2ccnc2)cc1` : -1.45% (inactive)

Form: molecule = `CC(=O)c1cccc(N)c1` ; growth inhibition = -26.9% (inactive)

growth inhibition for `CNC(=O)OCc1nc(N=[N+]=[N-])n(C)c1COC(=O)NC` is -16.9% (inactive)

Quick note, growth inhibition for `CCn1c2ccc(N=C=O)cc2c2c3[nH]c(=O)c4cccn4c3ccc21` landed at -30.9% (inactive)

Just so you know, measured growth inhibition for `Clc1ccc(C2SCCS2)c(Cl)c1` came out at 56.8% (inactive)
